Assay: Primary qHTS for inhibitors of nuclear receptor binding SET domain protein 2 (NSD2) in an isogenic RCH-ACV NSD2 p.E1099K mutant (9B) (AID 1645876); note: nearly all actives have a fitted effect of over 70% in size
Conditions: RCH-ACV (leukaemia line) NSD2 E1099K (9B) viability, CellTiter-Glo, 72 h; series mostly up to 44.9 µM
Inconclusive results are not listed. Activity calls are given as the source filed them. Calls come from the whole dose curve; as a rule, active = well fitted inhibition curve with a large enough effect; inconclusive = small, poorly fitted or top-dose-only effect; inactive = flat fitted curve, though single readings scatter.
Measure: activity change, negative = viability loss

Compound: COC1=CC(=O)O[C@@H](/C=C/c2ccccc2)[C@@H]1O
Readout value: inactive
--
Compound: C[C@@H]1O[C@@H](O[C@H]2[C@H](OC(C#N)c3ccc(O)cc3)O[C@H](CO)[C@@H](O)[C@@H]2O)[C@H](O)[C@H](O)[C@H]1O (some centres undefined)
Readout value: inactive
--
Compound: O=C1NC(=Nc2ccccc2F)S/C1=C\c1ccc(C(=O)O)cc1
Readout value: inactive
--
Compound: O=C(O[C@H]1[C@@H]2C=CO[C@@H](O[C@@H]3O[C@H](CO)[C@@H](O)[C@H](O)[C@H]3O)[C@@H]2[C@@]2(CO)O[C@@H]12)c1ccc(O)cc1
Readout value: inactive

---

Experiment: Cell Viability - LYMP2-023 (AID 975);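 note: cells exposed to compound for 24 hours at 37 °C; nearly all actives have a fitted effect of over 55% in size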
Conditions: LYMP2-023 lymphoblastoid cell viability; series mostly up to 92.2 µM
Description: NIH Chemical Genomics Center [NCGC] NIH Molecular Libraries Screening Centers Network [MLSCN] National Institutes of Environmental Health Sciences [NIEHS] National Toxicology Program [NTP] We have developed a 1536-well cell-based assay for quantitative high throughput screening (qHTS) against a number of cell lines to determine in vitro cytotoxicity of small molecules. […] 8. Detection; Luminescence; Viewlux plate reader […]
Records with an inconclusive call do not appear. Calls of active or inactive are those of the source. The call rests on the fitted dose curve; in most records, active means well fitted cell-killing curve with a large enough effect; inconclusive means small, poorly fitted or top-dose-only effect; inactive means flat fitted curve, though single readings scatter.
Possible outcomes: active, inactive

Compound: O=C(O)CCC(=O)C(=O)O
Assigned category: inactive
--
Compound: Nc1ccn([C@H]2CS[C@@H](CO)O2)c(=O)n1
Assigned category: inactive
--
Compound: CC1=C2[C@@H]([C@H](C)CC[C@H]2/C=C(\C)C(=O)O)[C@H](O)C1
Assigned category: inactive
--
Compound: O=S(=O)(O)O
Assigned category: inactive
--
Compound: CCOc1ccc2c(c1)C(C)=CC(C)(C)N2
Assigned category: inactive
--
Compound: CCCCCCCC(=O)O
Assigned category: inactive
--
Compound: O=CCCCC=O
Assigned category: active
--
Compound: CC(O)CO (stereo not given)
Assigned category: inactive
--
Compound: CCCCCCCC/C=C\CCCCCCCC(=O)O
Assigned category: inactive
--
Compound: Cc1ccccc1
Assigned category: inactive

---

Assay: qHTS Assay for Identification of Small Molecule Inducers of Hypoxia Response (AID 2120)
Conditions: hypoxia response reporter cells, beta-lactamase ratio readout; series mostly up to 104 µM
Results filed as inconclusive are left out. Activity calls are given as the source filed them. Calls follow the shape of the dose curve; as a rule, active = well fitted curve in the direction sought with a large enough effect in the signal ratio, with a control signal flat (not every such curve was filed as active); inconclusive = small, poorly fitted or top-dose-only effect, or a change in a side signal; inactive = no such curve, though single readings can be large or run the other way; the % refers to the signal ratio.

Compound: O=S(=O)(O)O
outcome: inactive
//
Compound: Cc1ccccc1
outcome: inactive
//
Compound: CCOC(C)=O
outcome: inactive
//
Compound: CC(O)CO (stereo unspecified)
outcome: inactive
//
Compound: Nc1ccn([C@H]2CS[C@@H](CO)O2)c(=O)n1
outcome: inactive
//
Compound: CC1=C2[C@@H]([C@H](C)CC[C@H]2/C=C(\C)C(=O)O)[C@H](O)C1
outcome: inactive
//
Compound: CCCCCCCC/C=C\CCCCCCCC(=O)O
outcome: inactive
//
Compound: CC1=C(/C=C/C(C)=C/C=C/C(C)=C/CO)C(C)(C)CCC1
outcome: inactive
//
Compound: CCCCCCCC(=O)O
outcome: inactive
//
Compound: IC(I)I
outcome: inactive
//
Compound: CC(C)=O
outcome: inactive
